# TARGET UNDER TEST: MCHR1 Rat (Rattus norvegicus)
# Sequence (P97639 whole entry): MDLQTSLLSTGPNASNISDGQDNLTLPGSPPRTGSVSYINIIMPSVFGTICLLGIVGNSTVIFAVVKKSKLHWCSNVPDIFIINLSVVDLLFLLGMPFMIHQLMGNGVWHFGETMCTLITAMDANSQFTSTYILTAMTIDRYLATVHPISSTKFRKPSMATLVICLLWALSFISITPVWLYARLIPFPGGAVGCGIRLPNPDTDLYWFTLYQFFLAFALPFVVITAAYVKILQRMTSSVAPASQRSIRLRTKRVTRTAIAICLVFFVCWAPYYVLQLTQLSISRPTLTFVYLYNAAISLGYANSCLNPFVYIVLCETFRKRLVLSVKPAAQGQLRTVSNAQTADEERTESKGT
# TEST DESCRIPTION: MCHR1 rat binding (radioligand binding assay)
REPORTED PROPERTY: Ki (nM)
Answers are plain numbers, in nM.

Examples with their reported Ki follow.
Return value of Ki for input COc1cc(-n2cnn3nc(-c4ccc(Cl)cc4)cc3c2=O)ccc1OCCN1CCC(O)C1 (stereo not shown) , no commentary.
0.8

Return value of Ki for input COc1cc(-n2cnn3cc(-c4ccc(Cl)cc4)cc3c2=O)ccc1OCC(O)C1CC1 (stereo not shown) , no commentary.
2.79

Return value of Ki for input "COc1ccc(-n2cnn3cc(-c4ccc(Cl)cc4)cc3c2=O)cc1OC" , no commentary.
8.29

// below: Ki requested for another compound
Return value of Ki for input "COc1cc(-n2cnn3cc(-c4ccc(Cl)cc4)cc3c2=O)ccc1OCC(C)(C)O" , no commentary.
2.76

----------
Please go through the items and note down their pKi.
# TARGET UNDER TEST: mutated (E4Q, A5T) hMCHR1 receptor (Homo sapiens, UniProt Q99705, A5T/E4Q)
# Construct: expressed in transfected cells; host or cells: HEK-293 (stably transfected), membranes
# Sequence (Q99705 whole entry E4Q/A5T): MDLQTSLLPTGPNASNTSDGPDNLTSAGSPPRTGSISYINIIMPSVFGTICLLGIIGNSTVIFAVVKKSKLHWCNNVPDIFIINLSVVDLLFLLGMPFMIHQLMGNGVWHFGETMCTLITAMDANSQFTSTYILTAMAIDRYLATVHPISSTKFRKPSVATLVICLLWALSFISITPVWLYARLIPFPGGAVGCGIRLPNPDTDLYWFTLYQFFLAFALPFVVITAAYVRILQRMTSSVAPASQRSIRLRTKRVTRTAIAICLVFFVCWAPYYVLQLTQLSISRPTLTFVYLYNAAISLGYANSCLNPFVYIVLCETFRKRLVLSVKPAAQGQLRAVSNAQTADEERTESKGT
# TEST DESCRIPTION: Radioligand binding assay for assessment of MCHR1 activity (human)
# APPLIED CONDITIONS: membranes of HEK-293 cells, [Phe13,[125I]Tyr19]-MCH competition
Numbers only, as −log10 of the molar value.

Provide reported pKi for each item, in the same order as listed.
1. COc1cc(-n2cnn3cc(-c4ccc(Cl)cc4)cc3c2=O)ccc1N1C[C@H](OC(=O)[C@@H](N)C(C)C)[C@H](OC(=O)[C@@H](N)C(C)C)C1
2. COc1ccc(-n2cnn3cc(-c4ccc(Cl)cc4)cc3c2=O)cc1OC
3. COc1cc(-n2cnn3nc(-c4ccc(Cl)cc4)cc3c2=O)ccc1OCCN1CCC(O)C1 (stereo not drawn)
4. COc1cc(-n2cnn3cc(-c4ccc(Cl)cc4)cc3c2=O)ccc1OCC(O)C1CC1 (stereo not drawn)
5. O=c1c2cc(-c3ccc(Cl)cc3)cn2ncn1-c1ccc(N2CCC(O)CC2)nc1
6. COc1ccc(-n2cnn3cc(-c4ccc(Cl)cc4)nc3c2=O)cc1OC
7. COc1cc(-n2cnn3cc(-c4ccc(Cl)cc4)cc3c2=O)ccc1OCC(C)(C)O
8. COc1cc(-n2cnn3cc(-c4ccc(Cl)cc4)cc3c2=O)ccc1OCCN1CCCC1

8.03
7.67
8.66
8.35
7.94
7.12
8.35
9.28

----------
Please go through the items and note down their Ki.
# TARGET UNDER TEST: mutated (E4Q, A5T) hMCHR1 receptor (Homo sapiens, UniProt Q99705, A5T/E4Q)
# TEST DESCRIPTION: Radioligand binding assay for assessment of MCHR1 activity (human)
# APPLIED CONDITIONS: membranes of HEK-293 cells, [Phe13,[125I]Tyr19]-MCH competition
Structures can show the parent of a compound that is named as a salt.
Answers are plain numbers, in nM.

Provide reported Ki for each item, in the same order as listed.
1. COc1cc(-n2cnn3cc(-c4ccc(Cl)cc4)cc3c2=O)ccc1OCC(C)N1CCCC1 (stereo not shown)
2. COc1cc(-n2cnn3cc(-c4ncc(Cl)cn4)cc3c2=O)ccc1OCC1(O)CC(F)(F)C1
3. O=c1c2cc(-c3ccc(Cl)cn3)cn2ncn1-c1ccc(N2CC[C@@H](O)C2)nc1

[0.17, 9, 124]

Return value of Ki for input CCS(=O)(=O)C[C@H](COc1ccc(-n2cnn3cc(-c4ncc(Cl)cn4)cc3c2=O)cc1OC)OC(=O)CN [Example 61, TFA] , no commentary.
126
